The origin of these recorded values is patent US11382946B2.

# Test system: P. aeruginosa
# Type: cell-based, Pseudomonas aeruginosa
# Stated conditions: 18 h
Non-standard residues stand in square brackets, D forms with d. Residues, ends and D or L forms follow the SMILES beside them. *: point of attachment. 2Nal = N[C@@H](Cc1ccc2ccccc2c1)C(=O)O; Nle = CCCC[C@H](N)C(=O)O; Octanoyl = CCCCCCCC(=O)*
Labelling field: enter YES if recorded Antimicrobial activity (IC50, μg/ml) P. aeruginosa is less than 20 µg/mL. Enter NO if it equals or exceeds that cut-off.

Some solved cases for reference:
{"Compound": "CCCCCCCC(=O)N[C@@H](CCCNC(=N)N)C(=O)N[C@@H](Cc1c[nH]c2ccccc12)C(=O)N[C@@H](CCCNC(=N)N)C(=O)N[C@@H](Cc1c[nH]c2ccccc12)C(=O)N[C@@H](CCCC)C(=O)N[C@@H](Cc1ccc(O)cc1)C(=O)N[C@H](CCSC)C(N)=O [Peptide V5, Oct-RWRW-Nle-Ym-NH2] (Octanoyl-RWRW[Nle]Y[dM]-NH2)", "Group": "NO"}
{"Compound": "CSCC[C@@H](NC(=O)[C@H](Cc1c[nH]c2ccccc12)NC(=O)[C@H](Cc1ccc2ccccc2c1)NC(=O)[C@H](Cc1c[nH]c2ccccc12)NC(=O)[C@H](CCCNC(=N)N)NC(=O)[C@H](Cc1c[nH]c2ccccc12)NC(=O)[C@@H](N)CCCNC(=N)N)C(N)=O [Peptide V18_0, RWRWZWm-NH2] (H-RWRW[2Nal]W[dM]-NH2)", "Group": "NO"}
{"Compound": "CSCC[C@@H](NC(=O)[C@@H](NC(=O)[C@H](CCCNC(=N)N)NC(=O)[C@H](Cc1c[nH]c2ccccc12)NC(=O)[C@H](Cc1c[nH]c2ccccc12)NC(=O)[C@H](CCCNC(=N)N)NC(=O)[C@H](Cc1ccc2ccccc2c1)NC(C)=O)C(C)C)C(N)=O [Peptide V21_Ac, Ac-ZRWWRVm-NH2] (Ac-[2Nal]RWWRV[dM]-NH2)", "Group": "NO"}
{"Compound": "CCCC[C@H](NC(=O)[C@H](Cc1c[nH]c2ccccc12)NC(=O)[C@H](Cc1c[nH]c2ccccc12)NC(=O)[C@H](CCCNC(=N)N)NC(=O)[C@H](Cc1ccc2ccccc2c1)NC(C)=O)C(=O)N[C@@H](Cc1c[nH]c2ccccc12)C(=O)N[C@H](CCSC)C(N)=O [Peptide V20_Ac, Ac-ZRWW-Nle-Wm-NH2] (Ac-[2Nal]RWW[Nle]W[dM]-NH2)", "Group": "NO"}
{"Compound": "CSCC[C@@H](NC(=O)[C@H](Cc1c[nH]c2ccccc12)NC(=O)[C@H](CCCNC(=N)N)NC(=O)[C@H](Cc1c[nH]c2ccccc12)NC(=O)[C@H](Cc1c[nH]c2ccccc12)NC(=O)[C@H](CCCNC(=N)N)NC(=O)[C@H](Cc1ccc2ccccc2c1)NC(C)=O)C(N)=O [Peptide V19_Ac, Ac-ZRWWRWm-NH2] (Ac-[2Nal]RWWRW[dM]-NH2)", "Group": "NO"}
{"Compound": "CCCCCCCC(=O)N[C@@H](CCCNC(=N)N)C(=O)N[C@@H](Cc1c[nH]c2ccccc12)C(=O)N[C@@H](CCCNC(=N)N)C(=O)N[C@@H](Cc1c[nH]c2ccccc12)C(=O)N[C@@H](Cc1ccc2ccccc2c1)C(=O)N[C@@H](Cc1c[nH]c2ccccc12)C(=O)N[C@H](CCSC)C(N)=O [Peptide V18, Oct-RWRWZWm-NH2] (Octanoyl-RWRW[2Nal]W[dM]-NH2)", "Group": "YES"}

Query: Please indicate whether the reported Antimicrobial activity (IC50, μg/ml) P. aeruginosa of N=C(N)NCCC[C@H](NC(=O)[C@H](Cc1c[nH]c2ccccc12)NC(=O)[C@@H](N)CCCNC(=N)N)C(=O)N[C@@H](Cc1c[nH]c2ccccc12)C(=O)N[C@@H](Cc1ccc2ccccc2c1)C(=O)N[C@@H](Cc1c[nH]c2ccccc12)C(N)=O [Peptide V16_0, RWRWZW-NH2] (H-RWRW[2Nal]W-NH2) is strictly below 20 µg/mL.
Result: YES

Query: For CSCC[C@@H](NC(=O)[C@H](Cc1c[nH]c2ccccc12)NC(=O)[C@H](CCCNC(=N)N)NC(=O)[C@H](Cc1c[nH]c2ccccc12)NC(=O)[C@H](Cc1c[nH]c2ccccc12)NC(=O)[C@H](CCCNC(=N)N)NC(=O)[C@H](CCCNC(=N)N)NC(C)=O)C(N)=O [Peptide V24_Ac, Ac-RRWWRWm-NH2] (Ac-RRWWRW[dM]-NH2) then?
Result: NO

Query: Cool, now CCCC[C@H](NC(=O)[C@H](CCCNC(=N)N)NC(=O)[C@H](Cc1c[nH]c2ccccc12)NC(=O)[C@H](Cc1c[nH]c2ccccc12)NC(=O)[C@H](CCCNC(=N)N)NC(=O)[C@H](Cc1ccc2ccccc2c1)NC(C)=O)C(=O)N[C@@H](Cc1c[nH]c2ccccc12)C(=O)N[C@@H](Cc1c[nH]c2ccccc12)C(=O)N[C@@H](CCCNC(=N)N)C(=O)N[C@@H](Cc1c[nH]c2ccccc12)C(=O)N[C@H](CCSC)C(N)=O [Peptide V23_Ac, Ac-ZRWWR-Nle-WWRWm-NH2] (Ac-[2Nal]RWWR[Nle]WWRW[dM]-NH2)
Result: NO

* * *

# Test system: S. aureus
# Type: cell-based, Staphylococcus aureus
# Stated conditions: 18 h
# Experimental: The present inventors evaluated […] in order to select peptides showing excellent performance among various peptides synthesized in the Example 1. […] The next day, the bacteria were diluted to measure absorbance at 600 nm, adjusted to OD600=0.5, and diluted in a 1:100 ratio in nutrient medium. […] Subsequently, the mixture was stirred under conditions of 36° C. and 220 rpm, and incubated for 18 hours, and absorbance at 600 nm was measured. […]
Non-standard residues stand in square brackets, D forms with d. Residues, ends and D or L forms follow the SMILES beside them. *: point of attachment. 2Nal = N[C@@H](Cc1ccc2ccccc2c1)C(=O)O; Nle = CCCC[C@H](N)C(=O)O; Octanoyl = CCCCCCCC(=O)*
Parameter: Antimicrobial activity (IC50, μg/ml) S. aureus

Take a look at these entries with their results.
{"Molecule": "CSCC[C@@H](NC(=O)[C@@H](NC(=O)[C@H](CCCNC(=N)N)NC(=O)[C@H](Cc1c[nH]c2ccccc12)NC(=O)[C@H](Cc1c[nH]c2ccccc12)NC(=O)[C@H](CCCNC(=N)N)NC(=O)[C@H](Cc1ccc2ccccc2c1)NC(C)=O)C(C)C)C(N)=O [Peptide V21_Ac, Ac-ZRWWRVm-NH2] (Ac-[2Nal]RWWRV[dM]-NH2)", "Experimental value": "9.4 µg/mL"}
{"Molecule": "CCCCCCCC(=O)N[C@@H](CCCNC(=N)N)C(=O)N[C@@H](Cc1c[nH]c2ccccc12)C(=O)N[C@@H](CCCNC(=N)N)C(=O)N[C@@H](Cc1c[nH]c2ccccc12)C(=O)N[C@@H](CCCNC(=N)N)C(=O)N[C@@H](Cc1c[nH]c2ccccc12)C(=O)N[C@@H](CCSC)C(=O)N[C@H](C(=O)N[C@H](CCSC)C(N)=O)C(C)C [Peptide V9, Oct-RWRWRWMVm-NH2] (Octanoyl-RWRWRWMV[dM]-NH2)", "Experimental value": "12.7 µg/mL"}
{"Molecule": "CCCCCCCC(=O)N[C@@H](CCCNC(=N)N)C(=O)N[C@@H](Cc1c[nH]c2ccccc12)C(=O)N[C@@H](CCCNC(=N)N)C(=O)N[C@@H](Cc1c[nH]c2ccccc12)C(=O)N[C@@H](CCCC)C(=O)N[C@@H](Cc1ccc(O)cc1)C(=O)N[C@H](CCSC)C(N)=O [Peptide V5, Oct-RWRW-Nle-Ym-NH2] (Octanoyl-RWRW[Nle]Y[dM]-NH2)", "Experimental value": "2.0 µg/mL"}
{"Molecule": "CCCCCCCC(=O)N[C@@H](CCCNC(=N)N)C(=O)N[C@@H](Cc1c[nH]c2ccccc12)C(=O)N[C@@H](CCCNC(=N)N)C(=O)N[C@@H](Cc1c[nH]c2ccccc12)C(=O)N[C@@H](Cc1ccc2ccccc2c1)C(=O)N[C@@H](Cc1c[nH]c2ccccc12)C(=O)N[C@H](CCSC)C(N)=O [Peptide V18, Oct-RWRWZWm-NH2] (Octanoyl-RWRW[2Nal]W[dM]-NH2)", "Experimental value": "2.3 µg/mL"}

Turning to the following molecule.
Query: Request the reported Antimicrobial activity (IC50, μg/ml) S. aureus associated with CCCCCCCC(=O)N[C@@H](CCCCN)C(=O)N[C@@H](Cc1ccccc1)C(=O)N[C@@H](CCCCN)C(=O)N[C@@H](Cc1c[nH]c2ccccc12)C(=O)N[C@@H](CCCNC(=N)N)C(=O)N[C@@H](Cc1ccc(O)cc1)C(=O)N[C@@H](CCSC)C(=O)N[C@H](C(=O)N[C@H](CCSC)C(N)=O)C(C)C [Peptide V6, Oct-KFKWRYMVm-NH2] (Octanoyl-KFKWRYMV[dM]-NH2)
Result: >50 µg/mL
